assay.procedure: Therapeutic index, ratio of IC50 for human MRC5 cells to IC50 for human CCRF-CEM cells
Assay type: cell-based
assay.context: MRC5 cells versus CCRF-CEM cells, read-out: Ratio IC50
Could you please report measured selectivity ratio for the items listed next?

Report selectivity ratio for `CC(C)[C@@H]1CC[C@]2(C(=O)O)CC[C@]3(C)[C@H](CC[C@@H]4[C@@]5(C)CC([N+](=O)[O-])=C(O)C(C)(C)[C@@H]5CC[C@]43C)[C@@H]12` please. > 1.6

Now this one: COC(=O)[C@]12CC[C@@H](C(C)C)[C@@H]1[C@H]1CC[C@@H]3[C@@]4(C)CC(S)C(=O)C(C)(C)[C@@H]4CC[C@@]3(C)[C@]1(C)CC2 (stereo not given in full) > 1.1

Now this one: CC(=O)NC1C[C@]2(C)[C@H]3CC[C@@H]4[C@H]5[C@H]6OC[C@@]5(CCC6(C)C)CC[C@@]4(C)[C@]3(C)CC[C@H]2C(C)(C)C1=O (stereo not given in full) > 1.1

Now this one: CC1(C)CC[C@]23CC[C@]4(C)[C@H](CC[C@@H]5[C@@]6(C)CC(N)[C@H](O)C(C)(C)[C@@H]6CC[C@]54C)[C@H]2[C@H]1OC3 (stereo not given in full) 1.4

Now this one: `CC(=O)NC1=C[C@]2(C)[C@H]3CC[C@@H]4[C@H]5[C@H]6OC[C@@]5(CCC6(C)C)CC[C@@]4(C)[C@]3(C)CC[C@H]2C(C)(C)C1=O` > 1.7

Now this one: `CC1(C)CC[C@]23CC[C@]4(C)[C@H](CC[C@@H]5[C@@]6(C)C=C(O)C(=O)C(C)(C)[C@@H]6CC[C@]54C)[C@H]2[C@H]1OC3` > 2.9

Now this one: `CC(C)[C@@H]1CC[C@]2(C(=O)O)CC[C@]3(C)[C@H](CC[C@@H]4[C@@]5(C)C=C(N)C(=O)C(C)(C)[C@@H]5CC[C@]43C)[C@@H]12` > 1.9

Now this one: `CC(C)[C@@H]1CC[C@]2(C(=O)O)CC[C@]3(C)[C@H](CC[C@@H]4[C@@]5(C)CC([N+](=O)[O-])([N+](=O)[O-])C(=O)C(C)(C)[C@@H]5CC[C@]43C)[C@@H]12` > 1.7

Now this one: CC(C)[C@@H]1CC[C@]2(C(=O)O)CC[C@]3(C)[C@H](CC[C@@H]4[C@@]5(C)CC(N=[N+]=[N-])C(=O)C(C)(C)[C@@H]5CC[C@]43C)[C@@H]12 (stereo not given in full) > 2.9

Now this one: `CC(C)[C@@H]1CC[C@]2(C(=O)O)CC[C@]3(C)[C@H](CC[C@@H]4[C@@]5(C)C=C(NC6=C[C@]7(C)[C@H]8CC[C@@H]9[C@H]%10[C@H](C(C)C)CC[C@]%10(C(=O)O)CC[C@@]9(C)[C@]8(C)CC[C@H]7C(C)(C)C6=O)C(=O)C(C)(C)[C@@H]5CC[C@]43C)[C@@H]12` > 1.9

All values here come from ChEMBL document CHEMBL3856208.
